System: HIV-1 mutant Y188L
Protocol details: Inhibition of viral proliferation on culture cells (MT-4, MTT), Y188L mutant
Assay type: cell-based
Condition set: Human immunodeficiency virus 1, read-out: Y188L
Quantity kind: pEC50
Give bare numbers, as −log10 of the molar value.

Please look at the items below and tell me pEC50 for each one, in order.
1. COc1ccc(C=CCSc2nc(C(C)c3c(F)cccc3F)c(C)c(=O)[nH]2)cc1 (stereo not drawn) [Compound 26n]
2. CCc1c(C(C)c2c(F)cccc2F)nc(SCC=Cc2ccc([N+](=O)[O-])cc2)[nH]c1=O (stereo not drawn) [Compound 26q]

Ans.
7.15
5.71

Qu. Sample CCc1c(C(C)c2c(F)cccc2F)nc(SCC=Cc2ccc(OC)cc2)[nH]c1=O (stereo not drawn) [Compound 26p] — what was its pEC50?
Ans. 6.20

---

Test system: HIV-1 mutant K103N
Protocol details: Inhibition of viral proliferation on culture cells (MT-4, MTT), K103N mutant
Type: cell-based
Condition set: Table 3; cell test; read-out: K103N
Provide the recorded EC50 for the entries that follow.

COc1ccc(C#CCSc2nc(C(C)c3c(Cl)cccc3Cl)c(C)c(=O)[nH]2)cc1 (racemic) [Compound 27b] : > 54.5 µM

Qu. Checklist item: EC50 tested on HIV-1 mutant K103N, entry COc1ccc(C#CCSc2nc(Cc3c(Cl)cccc3Cl)c(C)c(=O)[nH]2)cc1 [Compound 27c] , value?
Ans. > 56.2 µM

---

Target of assay: HIV-1 (recombinant) reverse transcriptase (Human immunodeficiency virus type 1 group M subtype B, UniProt P03366)
Construct: 20-50 nM HIV-1 (recombinant) reverse transcriptase
Protocol details: Enzyme test: reverse transcription reaction in vitro with recombinant RT, wild type
Type: biochemical
Condition set: Table 3; enzyme test; read-out: WT
Quantity kind: IC50 (µM)
Answers are plain numbers, in µM.

Qu. Sample Cc1c(Cc2c(F)cccc2F)nc(SCC#Cc2ccc([N+](=O)[O-])cc2)[nH]c1=O [Compound 27a] — what was its IC50?
Ans. 0.416

---

Tested on: HIV-1 mutant Y188L
Protocol details: Inhibition of viral proliferation on culture cells (MT-4, MTT), Y188L mutant
Type: cell-based
Condition set: Human immunodeficiency virus 1, read-out: Y188L
Quantity kind: EC50

The examples below pair each entry with its known result.
COc1ccc(C=CCSc2nc(Cc3c(F)cccc3F)c(C)c(=O)[nH]2)cc1 [Compound 26l] : > 3.93 µM
Cc1c(Cc2c(Cl)cccc2Cl)nc(SCC=Cc2ccc([N+](=O)[O-])cc2)[nH]c1=O [Compound 26b] : > 10.8 µM
Cc1c(C(C)c2c(F)cccc2F)nc(SCC=Cc2ccc(C#N)cc2)[nH]c1=O (centres unmarked) [Compound 26o] : > 59.1 µM
Cc1c(Cc2c(F)cccc2F)nc(SCC=Cc2ccc([N+](=O)[O-])cc2)[nH]c1=O [Compound 26i] : > 11.7 µM

Please look at the items below and tell me EC50 for each one, in order.
1. COc1ccc(C=CCSc2nc(C(C)c3c(Cl)cccc3Cl)c(C)c(=O)[nH]2)cc1 (centres unmarked) [Compound 26g]
2. CCc1c(C(C)c2c(F)cccc2F)nc(SCC=Cc2ccc(C#N)cc2)[nH]c1=O (centres unmarked) [Compound 26r]
3. COc1ccc(/C=C/CSc2nc(Cc3c(Cl)cccc3Cl)c(C)c(=O)[nH]2)cc1 [Compound 26a]

Ans.
1: 1.26 µM; 2: > 27.2 µM; 3: > 0.96 µM

Qu. Sample CCc1c(Cc2c(Cl)cccc2Cl)nc(SCC=Cc2ccc(OC)cc2)[nH]c1=O [Compound 26e] — what was its EC50?
Ans. > 0.19 µM
